Listing: IRF reporter of selected compounds
System: RAW-Dual (murine macrophage reporter line)
assayComment: IRF reporter (Lucia luciferase) activity fold change vs agonist alone; higher = enhanced IRF activity
conditionContext: modulator concentration 10 µM; agonist: 3'3'-cGAMP 10 ug/mL
The response must contain the number and no unit.

Here are 10 compounds together with their reported answers.
• COc1ccc(CC(C)N2CCN(c3cccc(C)c3C)CC2)cc1OC (configuration not stated) = 0.787
• Cc1cc(CCNC(=O)c2nc3ccccc3s2)nn1C = 0.953
• CN(C)CCOC(=O)COc1ccc(Cl)cc1.Cl = 0.882
• O=C(NCCC(CCO)c1ccccc1)c1cccc(Br)c1 (configuration not stated) = 0.653
• CC(=O)Nc1ccc(C(=O)Nc2ccc(Cl)cn2)cc1 = 0.942
• Cc1cc(Cl)ccc1OCCCC(=O)NO = 0.234
• CCc1c(C)[nH]c2c1C(=O)C(CN1CCOCC1)CC2.Cl (configuration not stated) = 0.752
• CC(C)(C)c1ccc(C(=O)CCCN2CCC(OC(c3ccccc3)c3ccccc3)CC2)cc1 = 0.646
• O=C(c1cc2ccccc2o1)N1CC(N2C(=O)CCC2=O)C1 = 1.03
• CCN(CC)c1ccc(C=NNc2cc(N3CCOCC3)nc(N3CCOCC3)n2)cc1 = 0.458

// moving on: another record for IRF reporter
In plain terms, "c1ccc(CCn2c3ccccc3c3nnc(SCCN4CCCCC4)nc32)cc1" has a documented IRF reporter of 0.81

---

Tested on: RAW-Dual (murine macrophage reporter line)
assayComment: viability score (confluency relative to resting cells, overnight) (fraction); higher = more viable, active = viable (0.7 or more)
conditionContext: modulator concentration 10 µM
measuredProperty: viability score
# respond with the number and nothing more

viability score recorded for this molecule, "O=c1[nH][nH]c(=O)c2c(N=Cc3cc4c(cc3[N+](=O)[O-])OCO4)cccc12" , is 0.995

---

Property: NF-kB reporter; scope: individual compounds
System: RAW-Dual (murine macrophage reporter line)
assayComment: NF-kB reporter (SEAP) activity fold change vs agonist alone; higher = enhanced NF-kB activity
conditionContext: modulator concentration 10 µM; agonist: MPLA […]
Reply with the value as a number alone.

- CCOC(=O)C1CCCN(S(=O)(=O)Cc2ccccc2)C1 (stereo unspecified): 1.02

// NF-kB reporter value for COc1ccc(CNC2CCCc3ccccc32)cc1OC (stereo unspecified) : 0.981

Lab note: "Cc1cccc(NC(=O)C(=Cc2ccco2)NC(=O)c2ccccc2I)c1" gave NF-kB reporter of 1.01

# compound "O=c1c(O)c(-c2ccc(O)cc2O)oc2cc(O)cc(O)c12" ; its NF-kB reporter = 1.01

NF-kB reporter reported for this compound "CCOc1ccc2nc(NC(=O)c3ccc(Br)cc3F)sc2c1" : 1

So for "COc1ccc(C=C2C(=O)N(c3ccc(C(=O)O)cc3)N=C2C)cc1" , the logged NF-kB reporter turned out to be 1.02

O=C(Nc1nccs1)c1ccc2c(c1)C(=O)N(CC1CCCO1)C2=O (stereo unspecified) yielded NF-kB reporter of 0.975

Sure, the documented NF-kB reporter for "Cc1nc(-c2ccc(OCC(C)C)c(C#N)c2)sc1C(=O)O" is 1.02

The compound listed as "CCOc1ccccc1NC(=O)Nc1ccc2c(c1)CCC(=O)N2C" shows NF-kB reporter equal to 0.99

"Cc1cc(CCNC(=O)c2nc3ccccc3s2)nn1C" yielded NF-kB reporter of 0.978

According to the records, this compound CC(O)Cn1cnc2c1c(=O)n(C)c(=O)n2C (stereo unspecified) displays NF-kB reporter of 1.01
